Recorded Internalization % TOP values for a group of binders are listed next.
study.system: human GLP-1R (SNAP-GLP-1R expressed in HEK293 cells) (human) (UniProt P43220)
Sequence (P43220 24-463): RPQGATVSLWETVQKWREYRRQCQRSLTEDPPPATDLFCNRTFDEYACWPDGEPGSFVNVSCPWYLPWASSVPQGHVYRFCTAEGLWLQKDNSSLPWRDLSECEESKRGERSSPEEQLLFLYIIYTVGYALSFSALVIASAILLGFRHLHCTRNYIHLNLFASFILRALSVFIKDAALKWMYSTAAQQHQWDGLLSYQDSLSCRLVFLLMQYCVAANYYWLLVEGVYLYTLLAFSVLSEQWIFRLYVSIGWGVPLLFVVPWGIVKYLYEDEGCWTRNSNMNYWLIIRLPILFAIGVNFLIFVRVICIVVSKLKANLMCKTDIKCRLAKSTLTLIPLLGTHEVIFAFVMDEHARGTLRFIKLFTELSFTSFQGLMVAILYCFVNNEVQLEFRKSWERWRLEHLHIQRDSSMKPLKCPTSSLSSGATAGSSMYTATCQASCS
assay.explanation: cell-based or functional assay
Starred links: 1 amine or outer side, 2 acyl side, 3 side chain; linkers in the order of their positions; H or OH if unused. Non-standard residues stand in square brackets, D forms with d. Groups on a side chain read outwards from the residue. No end group written: not given here. *: point of attachment. C18 diacid = O=C(O)CCCCCCCCCCCCCCCCC(=O)*; γGlu = O=C(O)[C@H](CCC(=O)[*:2])N[*:1]; αMeL = CC(C)C[C@](C)(N)C(=O)O; Dap = NC[C@H](N)C(=O)O; AEEA = NCCOCCOCC(=O)O; Aib = CC(C)(N)C(=O)O
Give the quantity in %, number only.

Look up and state reported Internalization % TOP for YXQGTXTSDXXIXLDXKAQXEFIEXLIEGGPSSGAPPPSGSE (synthetic construct; SITE 2: note = 2-Aminoisobutyric Acid; SITE 6: note = alpha-methyl-2-fluoro-L-phenylalanine; SITE 10: note = 3-(4-Pyridyl)-L-alanine; SITE 11: note = alpha-methyl-L-serine; SITE 13: note = alpha-methyl-leucine; SITE 16: note = L-ornithine; SITE 17: note = Lysine is chemically mo) [Example 712] 109

Look up and state reported Internalization % TOP for YXQGTFTSDXSQXLDKKAQXAFIEYLIAGGPSSGAPPPSGE (synthetic construct; SITE 2: note = 2-Aminoisobutyric Acid; SITE 10: note = 3-(4-Pyridyl)-L-alanine; SITE 13: note = alpha-methyl-leucine; SITE 17: note = Lysine is chemically modified through conjugation of the epsilon-amino group of the Lysine side chain with (gamma-Glu)2-CO-(CH2)16-CO2H; SITE 20:) [Example 883] 77.1

Look up and state reported Internalization % TOP for Y[Aib]QGTFTSDYS[Dap][αMeL]LDKK([AEEA-γGlu-C18 diacid])AQ[Aib]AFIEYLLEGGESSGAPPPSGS-NH2 [Example 360] 66.1

Look up and state reported Internalization % TOP for YXQGTFTSDFSXXLDKKAQXAFIEWLLEGGHSSGAPPPSGE (synthetic construct; SITE 2: note = 2-Aminoisobutyric Acid; SITE 12: note = L-ornithine; SITE 13: note = alpha-methyl-leucine; SITE 17: note = Lysine is chemically modified through conjugation of the epsilon-amino group of the Lysine side chain with (2-[2-(2-Amino-ethoxy)-ethoxy]-acetyl)-(gamma-Glu)) [Example 122] 43.7
